The reported numbers originate from paper PMC5540273.

I'd be grateful if you could share measured %Inh for these entries.
System: SGK3
study.conditions: concentration: 1 μM, replicates: in singlicate; n = 1;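 note: KINOMEscan kinase panel screen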
Answers are plain numbers, in %.

Known results for molecules:
Cl.O=C(Nc1cccc(-c2nn3ncccc3c2-c2ccnc(Nc3cccnc3)n2)c1)c1c(F)cccc1F    0
Cc1csc(-c2nc(Nc3ccncc3)c3ccccc3n2)n1    13
COc1ccc(C2=C(Nc3cccc(C(=O)O)c3)C(=O)NC2=O)cc1    22
C[C@@H]1CCCCN1c1cc(-c2ccc3c(N)n[nH]c3c2)nc(N)n1    3
COc1cc(Nc2nccc(N3CCC(NC(=O)Nc4cc(C)ccc4C)C3)n2)cc(OC)c1OC (stereo not drawn)    0
Cl.Oc1ccc(-c2nc(-c3ccccc3)[nH]c2-c2ccncc2)cc1    0
COc1ccc(Nc2nccc(NCCNC(=O)Nc3ccccc3F)n2)cc1    16
Cc1ccc(-c2cc(-c3c[nH]nc3-c3ccccn3)ccn2)cc1    4

With those in mind, consider the next molecule.
What the record says about Cc1cccc(-c2nc(Nc3cccc(C(N)=O)c3)c3ccccc3n2)n1 : %Inh is 0

====

Tested on: STK36
study.conditions: concentration: 1 μM, replicates: in singlicate; n = 1
In plain terms, low %Inh, meaning strictly below 5%, gives 1, and everything else gives 0.

COc1cccc(-c2cc(-c3c[nH]nc3-c3ccccn3)ccn2)c1    0

Query: Please let me know if Cc1c(O)cccc1Nc1ccnc2ccc(C(F)(F)F)cc12.Cl shows %Inh below 5%.
Response: 1

Query: Please determine if Fc1cc(Cl)ccc1Nc1ccnc2cc(-c3ccc(CN4CCCCC4)o3)ccc12 is below 5% in terms of %Inh.
Response: 1

====

Tested on: RSK2(Kin.Dom.2-C-terminal)
Construct: gene RPS6KA3
study.conditions: concentration: 1 μM, replicates: in singlicate; n = 1
measured.quantity: %Inh (%)
One number for each entry, in %.

CC1=C(C(=O)Nc2cc3cn[nH]c3cc2F)C(c2ccc(C(F)(F)F)cc2)CC(=O)N1 (stereo not shown) [GSK429286]    0
Cn1ccc2ncnc(Oc3cccc(C(=O)Nc4ccccc4)c3)c21    0
COc1ccccc1-c1ccc2c(NC(=O)C3CC3)n[nH]c2n1 [SB-711239]    7
O=C(Nc1n[nH]c2nc(-c3nccs3)c(Br)cc12)C1CC1 [SB-742251]    0
NC(=O)c1nnc2ccccc2c1N    13

Quick batch: %Inh for everything below.
1. Fc1cccc(COc2nnc(-c3ccc4c(c3)CCO4)o2)c1
2. Cn1cncc1-c1ccc2ncnc(Nc3ccc(OCc4ccccc4)cc3)c2c1 [GW320571]
3. Cc1cccc(-c2nc(-c3ccc(S(C)(=O)=O)cc3)sc2-c2ccnc(NCCc3ccccc3)c2)c1
4. Cc1ccccc1-n1cnc2c(N)ncnc21 [SKF-97510]
5. Cc1cc(NCC(c2ccccc2)c2ccccc2)nc(NCc2ccc(C(F)(F)F)cc2)n1 [GW497681]

Response:
1. 35
2. 20
3. 0
4. 0
5. 4

====

Tested on: CSNK1G1
study.conditions: concentration: 1 μM, replicates: in singlicate; n = 1
# cutoff 1% applies to %Inh; >= gives yes (1), < gives no (0)

Field: example entries. Status: answers known.
COc1cccc(NC(=O)NC2CCN(c3ccnc(Nc4ccc(F)cc4)n3)C2)c1 (stereo not shown)    yes (1)
Cc1ccccc1-n1cnc2c(N)ncnc21    no (0)
C[C@@H]1CCCCN1c1cc(-c2ccc3c(N)n[nH]c3c2)nc(N)n1    yes (1)

Query: Could you verify whether the entry Cn1ccc2ncnc(Oc3cccc(C(=O)Nc4ccccc4)c3)c21 shows %Inh of no less than 1%?
Response: no (0)

Query: Determine whether this molecule has %Inh no lower than 1%: CC(C)(C)c1ccc(C(=O)Nc2cn3cc(-c4cccnc4)ccc3n2)cc1
Response: yes (1)

Query: Is %Inh at least 1%? Consider Cc1cccc(-c2cc(Nc3ccncc3)c3ccccc3n2)n1
Response: yes (1)

Query: hey, is %Inh for this one >= 1%? CN1C(=O)C(Nc2ccc(Cl)c(C(=O)O)c2)=C(c2ccc(Cl)cc2)C1=O
Response: no (0)

Query: Dear colleague, could you confirm whether Cc1cccc(-c2nc(-c3ccc(S(C)(=O)=O)cc3)sc2-c2ccnc(NCCc3ccccc3)c2)c1 has %Inh at or above 1%?
Response: yes (1)

Query: # bool: %Inh of Cc1cc(-c2ccc3c(c2)CC[C@@H](N[C@@H](C)c2ccccc2)C3)cnc1N.Cl >= 1%
Response: yes (1)

Query: Item Cc1cccc(-c2nc(Nc3ccncc3)c3ccccc3n2)n1 with %Inh of 1% or above?
Response: no (0)

Query: # bool: %Inh of COc1cc2nccc(Nc3ccc(NC(=O)c4ccc(C)cc4)c(O)c3)c2cc1OC.Cl >= 1%
Response: no (0)

Query: # bool: %Inh of O=C(Nc1ccccc1)Nc1cccc(Oc2ccc3nccn3n2)c1 >= 1%
Response: no (0)

Query: Threshold query (%Inh >= 1%) on O=C(Nc1n[nH]c2nc(-c3nccs3)c(Br)cc12)C1CC1
Response: yes (1)
